Hi there, I'd appreciate the recorded IC50 for every entry that follows.
Target: Endothelial lipase (EL) (Homo sapiens (Human), UniProt Q9Y5X9)
Sequence (Q9Y5X9 21-500): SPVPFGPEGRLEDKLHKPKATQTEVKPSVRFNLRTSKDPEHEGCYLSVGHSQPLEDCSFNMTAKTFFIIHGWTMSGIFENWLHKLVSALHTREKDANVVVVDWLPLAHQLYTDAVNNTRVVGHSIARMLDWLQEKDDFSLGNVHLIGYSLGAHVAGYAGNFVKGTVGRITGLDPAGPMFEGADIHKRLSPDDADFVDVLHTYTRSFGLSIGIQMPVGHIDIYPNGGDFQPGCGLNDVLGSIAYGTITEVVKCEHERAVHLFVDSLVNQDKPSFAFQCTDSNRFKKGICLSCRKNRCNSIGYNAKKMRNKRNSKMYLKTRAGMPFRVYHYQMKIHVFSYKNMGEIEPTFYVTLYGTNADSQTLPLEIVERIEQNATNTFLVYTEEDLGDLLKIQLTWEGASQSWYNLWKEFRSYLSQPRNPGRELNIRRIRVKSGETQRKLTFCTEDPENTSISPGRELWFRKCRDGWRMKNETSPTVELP
Assay: EL assay: endothelial lipase activity with fluorescent substrate A10070 in DMPG vesicles
Assay type: biochemical

Recorded IC50 (compound Cc1nnc(CNC(=O)C(c2nc3cc(F)c(-c4ccccc4)cc3s2)S(=O)(=O)Cc2ccccc2)o1 (stereo not drawn) [Example B153] ): < 10 nM

Recorded IC50 (compound N#Cc1cccc(CS(=O)(=O)C(C(=O)NCCS(N)(=O)=O)c2nc3ccc(-c4ccccc4)cc3s2)c1 (stereo not drawn) [Example B120] ): < 10 nM

Recorded IC50 (compound CC(C)(C)OC(=O)c1ccc(-c2ccc3nc(C(C(=O)NCCS(N)(=O)=O)S(C)(=O)=O)sc3c2)cc1 (stereo not drawn) [Example B156] ): < 10 nM
